Recorded measurements of normalized growth, one per entry
# test: chemical genetic growth profiling, strain panel (AID 1159580);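 note: tested at 20 µM; growth read once vehicle control cultures reached saturation at 30 °C; 1 = growth at the plate median or of vehicle wells; lower values mean less growth of the strain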
# applied_conditions: S. cerevisiae deletion strains, growth OD, locus YBR023C, strain chs3, active compounds read low
Among all 5,500 compounds or so, about 2,000 (36%) were called active. Another 18% or so got no clear call; they are omitted. The list shows a part of the results.
observable: normalized growth

compound: O=C1C(Cl)=C(Cl)C(=O)C(Cl)=C1Cl
recorded_measurement: 0.927
//
compound: CCCCC/C=C/CCC(=O)N[C@H]1[C@H](Oc2c3cc4cc2Oc2ccc(cc2Cl)[C@@H](O[C@@H]2O[C@H](CO)[C@@H](O)[C@H](O)[C@H]2NC(C)=O)[C@@H]2NC(=O)[C@H](NC(=O)[C@@H]4NC(=O)[C@H]4NC(=O)C(Cc5ccc(c(Cl)c5)O3)NC(=O)[C@H](N)c3ccc(O)c(c3)Oc3cc(O)cc4c3)c3ccc(O)c(c3)-c3c(OC4O[C@H](CO)[C@@H](O)[C@H](O)[C@@H]4O)cc(O)cc3[C@@H](C(=O)O)NC2=O)O[C@H](CO)[C@@H](O)[C@@H]1O (some centres not stated)
recorded_measurement: 0.998
//
compound: O=C(NC(=O)c1ccccc1Cl)Nc1ccc(OC(F)(F)F)cc1
recorded_measurement: 1.04
//
compound: O=C1CCC(N2C(=O)c3ccccc3C2=O)C(=O)N1 (configuration not stated)
recorded_measurement: 1.03
//
compound: COc1ccc2c(c1)OC/C(=C/c1ccc(OC)c(OC)c1)C2=O
recorded_measurement: 0.882
//
compound: O=C(O)CCCc1ccccc1
recorded_measurement: 0.994
//
compound: CCCCNC(=O)NS(=O)(=O)c1ccc(C)cc1
recorded_measurement: 1.02
